Molecular target: human GLP-1 receptor (human, UniProt P43220 24-463)
Assay: cell-based or functional assay
Numbered stars: 1 amine (or outer) side, 2 acyl side, 3 side chain; on linkers, the order of the positions; unused ones are H or OH. Square brackets hold non-standard residues; d marks the D form. Side chains are listed from the residue outwards. Ends that are not written are not given here. γGlu = O=C(O)[C@H](CCC(=O)[*:2])N[*:1]; x76 = not defined here; Aib = CC(C)(N)C(=O)O
In this section we review reported EC50 hGLP-1R (cAMP) values for a set of binders.
quantity-kind: EC50 hGLP-1R (cAMP) (pM)

binder="HXQGTFTSDLSKQKESRAAQDFIEWLKAGGPSSGAPPPS (dSer at 2; K(γE-x70) at 14; C-terminal NH2) [SEQ ID NO: 51]" value_observed=2.7
binder="HXQGTFTSDLSKQKDEEAARLFIEWLKAGGPSSGAPPPS (dSer at 2; K(γE-x53) at 14; C-terminal NH2) [SEQ ID NO: 221]" value_observed=1.5
binder="H[Aib]QGTFTSDLSKQK([γGlu-x76])ESRAAQDFIEWLKAGGPSSGAPPPS-NH2 (reading uncertain) [SEQ ID NO: 202]" value_observed=26.2
binder="HXQGTFTSDLSKQKESXAAQLFIEWLKAGGPSSGAPPPS (dSer at 2; K(γE-x53) at 14; Aib at 17; C-terminal NH2) [SEQ ID NO: 15]" value_observed=6.6

Source listed as patent US20180185450A1.
